# Target under test: Sodium-dependent dopamine transporter (Rattus norvegicus, UniProt P23977)
# Sequence (P23977 whole entry): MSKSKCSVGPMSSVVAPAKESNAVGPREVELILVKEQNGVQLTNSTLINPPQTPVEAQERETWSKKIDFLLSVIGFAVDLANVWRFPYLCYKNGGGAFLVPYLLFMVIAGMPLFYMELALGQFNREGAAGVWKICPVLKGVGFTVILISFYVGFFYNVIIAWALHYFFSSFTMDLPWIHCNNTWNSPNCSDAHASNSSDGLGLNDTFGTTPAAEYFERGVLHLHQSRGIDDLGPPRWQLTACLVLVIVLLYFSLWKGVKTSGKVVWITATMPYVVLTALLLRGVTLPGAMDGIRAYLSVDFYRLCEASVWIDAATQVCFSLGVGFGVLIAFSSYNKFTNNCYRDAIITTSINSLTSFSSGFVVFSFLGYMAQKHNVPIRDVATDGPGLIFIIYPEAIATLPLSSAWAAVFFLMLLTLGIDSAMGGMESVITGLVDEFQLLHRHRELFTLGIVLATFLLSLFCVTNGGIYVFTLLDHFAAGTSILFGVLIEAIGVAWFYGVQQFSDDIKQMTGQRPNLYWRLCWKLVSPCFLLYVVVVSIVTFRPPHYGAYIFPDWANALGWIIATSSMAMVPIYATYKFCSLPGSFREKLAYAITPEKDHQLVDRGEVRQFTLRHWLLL
pKi: −log10 of the molar value.
Threshold check on pKi: at or above 7 gives yes, strictly below gives no.

Test whether the compound NC(=O)C[S@@+]([O-])C(c1ccc(F)cc1)c1ccc(F)cc1 records pKi of 7 or higher.
no

Test whether the compound NC(=O)C[S@+]([O-])C(c1ccc(F)cc1)c1ccc(F)cc1 records pKi of 7 or higher.
no

Test whether the compound O=C(c1ccccc1)N1CCC(NCCSC(c2ccc(F)cc2)c2ccc(F)cc2)CC1 records pKi of 7 or higher.
yes

Test whether the compound CC(C)N(CCSC(c1ccc(F)cc1)c1ccc(F)cc1)C1CCN(C(=O)c2ccccc2F)CC1 records pKi of 7 or higher.
no

Test whether the compound O=C(c1ccccc1F)N1CCC(NCCSC(c2ccc(F)cc2)c2ccc(F)cc2)CC1 records pKi of 7 or higher.
yes

Test whether the compound [O-][S+](CCN1CCN(CC(O)Cc2ccccc2)CC1)C(c1ccc(F)cc1)c1ccc(F)cc1 (stereo not drawn) records pKi of 7 or higher.
yes

Test whether the compound CC(O)CN1CCN(CCSC(c2ccc(F)cc2)c2ccc(F)cc2)CC1 (stereo not drawn) records pKi of 7 or higher.
yes

Test whether the compound O=C(c1ccc(F)cc1F)N1CCC(NCCSC(c2ccc(F)cc2)c2ccc(F)cc2)CC1 records pKi of 7 or higher.
yes

Test whether the compound NC(=O)C[S+]([O-])C(c1ccc(F)cc1)c1ccc(F)cc1 (racemic) records pKi of 7 or higher.
no

Test whether the compound O=C(c1ccc(F)cc1F)N1CCC(NCC[S+]([O-])C(c2ccc(F)cc2)c2ccc(F)cc2)CC1 (stereo not drawn) records pKi of 7 or higher.
no

Test whether the compound O=C(c1ccc(F)cc1)N1CCC(NCCSC(c2ccc(F)cc2)c2ccc(F)cc2)CC1 records pKi of 7 or higher.
yes

Test whether the compound O=C(c1ccccc1F)N1CCC(NCC[S+]([O-])C(c2ccc(F)cc2)c2ccc(F)cc2)CC1 (stereo not drawn) records pKi of 7 or higher.
no

Test whether the compound CN(CCSC(c1ccc(F)cc1)c1ccc(F)cc1)C1CCN(C(=O)c2ccccc2F)CC1 records pKi of 7 or higher.
no

Test whether the compound O=C(c1cc2ccccc2[nH]1)N1CCC(NCCSC(c2ccc(F)cc2)c2ccc(F)cc2)CC1 records pKi of 7 or higher.
no

Test whether the compound CN(CC[S+]([O-])C(c1ccc(F)cc1)c1ccc(F)cc1)C1CCN(C(=O)c2ccccc2F)CC1 (stereo not drawn) records pKi of 7 or higher.
no

Test whether the compound OC(Cc1ccccc1)CN1CCC(NCCSC(c2ccc(F)cc2)c2ccc(F)cc2)CC1 (stereo not drawn) records pKi of 7 or higher.
yes

Test whether the compound CN(CCSC(c1ccc(F)cc1)c1ccc(F)cc1)C1CCN(C(=O)c2ccc(F)cc2)CC1 records pKi of 7 or higher.
no
